Reference for the values: patent US20260327324

Assayed Target: ROR1 (UniProt Q01973)
Sequence (Q01973 30-403): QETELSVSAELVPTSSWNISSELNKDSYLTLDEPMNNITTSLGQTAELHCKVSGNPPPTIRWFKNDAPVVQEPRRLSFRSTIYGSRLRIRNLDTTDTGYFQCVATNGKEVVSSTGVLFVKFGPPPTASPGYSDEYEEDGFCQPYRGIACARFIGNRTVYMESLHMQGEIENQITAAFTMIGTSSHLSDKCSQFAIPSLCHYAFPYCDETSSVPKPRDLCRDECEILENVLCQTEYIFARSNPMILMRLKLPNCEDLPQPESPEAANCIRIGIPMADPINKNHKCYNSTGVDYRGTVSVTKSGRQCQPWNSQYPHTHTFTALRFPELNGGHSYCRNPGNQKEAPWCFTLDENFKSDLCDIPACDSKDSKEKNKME
Assay Comment: SPR
Measurement Name: Kd (nM)
Write down the numeric answer in nM and omit the unit.

Task: Entry under review: PRO3735 (55-38-D07-sc02 A67G_S68G) (antibody) DVQMTQSPSSLSASVGDRVTITCRASENIYSGLAWYQQKPGKPPKLLIYRGGTLASGVSSRFSGSGSGTDFTLTISSLQPEDFATYYCQGGYYSSSSTYIAFGTGTKVTVLGGGGGSGGGGSGGGGSGGGGSQSQVVESGGGLVQPGGSLRLSCAVSGFDLSSYAVSWVRQAPGKGLEWIGIIYPRANTYYASWAKGRFTISKDNSKNTVYLQMNSLRAEDTAVYFCARDRYDSGAYLYTTYFNLWGQGTLVTVSS . Reported Kd?
Output: 0.336

Task: Try PRO3734 (55-39-G02-sc02 A67G_S68G) (antibody) AQQLTQSPSSLSASVGDRVTITCQASQNVWNNNYLSWFQQKPGKPPKLLIVTGGTLASGVSSRFSGSGSGTDFTLTISSLQPEDFATYYCAGGFSGEIRAFGTGTKVTVLGGGGGSGGGGSGGGGSGGGGSQSQLVESGGGLVQPGGSLRLSCAVSGLSLSRNAMSWVRQAPGKGLEWIGIILTSGSTYYASWAKGRFTISKDNSKNTVYLQMNSLRAEDTAVYFCVRGIASSSLKSFWGQGTLVTVSS next.
Output: 0.12

Task: Try PRO4143 (55-38-D07-sc09 G51C A67G_S68G_T141C) (antibody) DVQMTQSPSSLSASVGDRVTITCRASENIYSGLAWYQQKPGKPPKLLIYRGGTLASGVSSRFSGSGSGTDFTLTISSLQPEDFATYYCQGGYYSSSSTYIAFGCGTKVTVLGGGGGSGGGGSGGGGSGGGGSQSVVESGGGLVQPGGSLRLSCAVSGFDLSSYAVSWVRQAPGKCLEWIGIIYPRANTYYASWAKGRFTISKDNSKNTVYLQMNSLRAEDSAVYFCARDRYDSGAYLYTTYFNLWGQGTLVKVSS next.
Output: 0.631
